Assay: Drug uptake in iv dosed rhesus monkey white matter after 80 mins
Format: ADME, organism-based, Macaca mulatta
Details: in vivo
REPORTED ENDPOINT: SUV

(P) CN1C[C@@](C)(c2cc(F)cc(F)c2)N(CCCc2ccc3c(c2)C[C@@]2(C3)C(=O)Nc3ncccc32)C(=O)C12CCCC2
(Q) CN1C[C@@](C)(c2cc(F)cc(F)c2)N(CC(=O)Nc2ccc3c(c2)C[C@@]2(C3)C(=O)Nc3ncccc32)C(=O)C12CCCC2
Lab log: flag the item ( P or Q ) with the smaller SUV figure. Label of pick, please.
P
(P: 0.6, Q: 0.9)

* * *

Molecular target: MDR1 (ABCB1) (Homo sapiens, UniProt P08183)
Sequence (P08183 whole entry): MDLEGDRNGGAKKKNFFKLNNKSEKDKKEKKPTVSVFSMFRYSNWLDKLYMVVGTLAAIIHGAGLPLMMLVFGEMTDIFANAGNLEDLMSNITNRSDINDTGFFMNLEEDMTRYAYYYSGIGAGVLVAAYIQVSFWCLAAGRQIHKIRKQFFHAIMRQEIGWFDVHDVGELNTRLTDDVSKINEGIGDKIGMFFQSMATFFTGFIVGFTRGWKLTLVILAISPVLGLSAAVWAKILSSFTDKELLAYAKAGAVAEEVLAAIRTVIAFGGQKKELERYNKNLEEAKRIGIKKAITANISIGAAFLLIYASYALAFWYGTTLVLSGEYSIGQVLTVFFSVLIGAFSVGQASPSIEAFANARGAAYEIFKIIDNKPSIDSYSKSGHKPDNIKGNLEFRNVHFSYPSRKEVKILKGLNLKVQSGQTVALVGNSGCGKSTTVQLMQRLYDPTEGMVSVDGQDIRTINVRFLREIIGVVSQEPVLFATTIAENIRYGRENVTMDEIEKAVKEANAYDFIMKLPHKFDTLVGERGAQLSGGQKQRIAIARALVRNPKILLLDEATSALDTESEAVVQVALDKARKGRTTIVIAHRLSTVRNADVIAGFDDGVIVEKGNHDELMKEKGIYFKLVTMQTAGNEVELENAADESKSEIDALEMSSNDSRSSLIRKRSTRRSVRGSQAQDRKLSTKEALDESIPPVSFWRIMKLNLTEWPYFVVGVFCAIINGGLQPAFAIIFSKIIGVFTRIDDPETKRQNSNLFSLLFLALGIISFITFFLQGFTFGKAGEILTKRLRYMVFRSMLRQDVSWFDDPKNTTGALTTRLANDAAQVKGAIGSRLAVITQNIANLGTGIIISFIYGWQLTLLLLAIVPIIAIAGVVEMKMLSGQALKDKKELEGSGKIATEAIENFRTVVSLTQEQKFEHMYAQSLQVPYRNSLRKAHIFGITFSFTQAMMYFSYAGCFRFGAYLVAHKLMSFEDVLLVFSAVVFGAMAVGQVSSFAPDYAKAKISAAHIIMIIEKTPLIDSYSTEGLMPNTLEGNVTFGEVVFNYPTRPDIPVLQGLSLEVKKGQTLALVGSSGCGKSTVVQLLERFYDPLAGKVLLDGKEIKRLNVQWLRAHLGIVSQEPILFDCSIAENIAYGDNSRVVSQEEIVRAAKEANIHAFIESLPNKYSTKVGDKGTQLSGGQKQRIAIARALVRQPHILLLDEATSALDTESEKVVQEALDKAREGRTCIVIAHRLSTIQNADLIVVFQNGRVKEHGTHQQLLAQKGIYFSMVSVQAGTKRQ
Test: Efflux ratio of human MDR1-mediated drug transport from basolateral to apical side over apical to basolateral side in pig LLC cells expressing human MDR1 at 5 uM
Assay type: ADME, cell-based
Conditions: LLC-PK1
REPORTED ENDPOINT: efflux ratio at 5 µM

Reference set (3 entries):
Kindly state the measured efflux ratio at 5 µM obtained for C[C@@]1(c2cc(F)cc(F)c2)CNC2(CCCC2)C(=O)N1CC(=O)Nc1ccc2c(c1)C[C@@]1(C2)C(=O)Nc2ncccc21 with MDR1 (ABCB1) (Homo sapiens, UniProt P08183).
9.3

Moving on to CN1C[C@@](C)(c2cc(F)cc(F)c2)N(CC(=O)Nc2cnc3c(c2)C[C@@]2(C3)C(=O)Nc3ncccc32)C(=O)C12CCCC2
14

Moving on to CC1(C)NC[C@@](C)(c2cc(F)cc(F)c2)N(CC(=O)Nc2ccc3c(c2)C[C@@]2(C3)C(=O)Nc3ncccc32)C1=O
20

(1) CN1C[C@@](C)(c2cc(F)cc(F)c2)N(C/C=C/c2cnc3c(c2)C[C@@]2(C3)C(=O)Nc3ncccc32)C(=O)C12CCCC2
(2) CC1(C)NC[C@@H](c2cc(F)cc(F)c2)N(CC(=O)Nc2ccc3c(c2)C[C@@]2(C3)C(=O)Nc3ncccc32)C1=O
Hi there! Just curious which has the higher efflux ratio at 5 µM between 1 and 2 . Label of pick, please.
2
(2: 33, 1: 2)

(A) CN1C[C@@](C)(c2cc(F)cc(F)c2)N(CC(=O)Nc2ccc3c(c2)C[C@@]2(C3)C(=O)Nc3ncccc32)C(=O)C12CCCC2
(B) CN1C[C@@](C)(c2cc(F)cc(F)c2)N(CC(=O)Nc2ccc3c(c2)C[C@@]2(C3)C(=O)Nc3ncccc32)C(=O)C1(C)C
Lab log: flag the item ( A or B ) with the smaller efflux ratio at 5 µM figure. Label of pick, please.
A

* * *

Assay: Apparent passive permeability across pig LLC-PK1 cells
Format: ADME, cell-based, Sus scrofa
REPORTED ENDPOINT: Papp (×10⁻⁶ cm/s)

Can you share its Papp? I mean this compound: CN1C[C@@](C)(c2cc(F)cc(F)c2)N(CC(=O)Nc2ccc3c(c2)C[C@@]2(C3)C(=O)Nc3ncccc32)C(=O)C12CCCC2
25

Moving on to CN1C[C@@](C)(c2cc(F)cc(F)c2)N(CC(=O)Nc2ccc3c(c2)C[C@@]2(C3)C(=O)Nc3ncccc32)C(=O)C1(C)C
29

Moving on to CN1C[C@@](C)(c2cc(F)cc(F)c2)N(CCCc2cnc3c(c2)C[C@@]2(C3)C(=O)Nc3ncccc32)C(=O)C12CCCC2
23

Moving on to CN1C[C@@H](c2cc(F)cc(F)c2)N(CC(=O)Nc2ccc3c(c2)C[C@@]2(C3)C(=O)Nc3ncccc32)C(=O)C1(C)C
27

* * *

Target: Calcitonin gene-related peptide type 1 receptor (Homo sapiens, UniProt O60894+Q16602)
Sequence (Q16602 whole entry, one chain of several): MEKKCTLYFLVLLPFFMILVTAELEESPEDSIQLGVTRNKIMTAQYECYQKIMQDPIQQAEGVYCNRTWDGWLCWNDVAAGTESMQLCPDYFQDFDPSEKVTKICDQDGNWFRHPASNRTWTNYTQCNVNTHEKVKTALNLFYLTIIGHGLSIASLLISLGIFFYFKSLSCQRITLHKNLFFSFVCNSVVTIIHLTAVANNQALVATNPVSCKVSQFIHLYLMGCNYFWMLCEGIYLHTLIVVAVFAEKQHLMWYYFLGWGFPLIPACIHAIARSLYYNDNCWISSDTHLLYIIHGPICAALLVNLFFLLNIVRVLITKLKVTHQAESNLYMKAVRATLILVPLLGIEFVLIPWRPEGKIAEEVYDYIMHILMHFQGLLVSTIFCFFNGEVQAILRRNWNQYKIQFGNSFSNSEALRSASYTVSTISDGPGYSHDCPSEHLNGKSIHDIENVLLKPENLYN
Assay: Displacement of [125I]-hCGRP from human CGRP receptor expressed in HEK293 cells
pKi: −log10 of the molar value.
REPORTED ENDPOINT: pKi

Reference set (3 entries):
Can you share its pKi? I mean this compound: CN1C[C@@H](c2cc(F)cc(F)c2)N(CC(=O)Nc2ccc3c(c2)C[C@@]2(C3)C(=O)Nc3ncccc32)C(=O)C1(C)C
10.66

Moving on to CN1C[C@@](C)(c2cc(F)cc(F)c2)N(CC(=O)Nc2ccc3c(c2)C[C@@]2(C3)C(=O)Nc3ncccc32)C(=O)C1(C)C
10.25

Moving on to CN1C[C@@](C)(c2cc(F)cc(F)c2)N(CCCc2ccc3c(c2)C[C@@]2(C3)C(=O)Nc3ncccc32)C(=O)C12CCCC2
9.30

(a) CN1C[C@@](C)(c2cc(F)cc(F)c2)N(C/C=C/c2ccc3c(c2)C[C@@]2(C3)C(=O)Nc3ncccc32)C(=O)C12CCCC2
(b) CN1C[C@@](C)(c2cc(F)cc(F)c2)N(CC#Cc2cnc3c(c2)C[C@@]2(C3)C(=O)Nc3ncccc32)C(=O)C12CCCC2
Hi there! Just curious which has the higher pKi between a and b . Label of pick, please.
b
(b: 10.72, a: 10.03)

* * *

Test: Drug uptake in iv dosed rhesus monkey white matter after 80 mins
Assay type: ADME, organism-based, Macaca mulatta
Conditions: in vivo
REPORTED ENDPOINT: SUV

Can you share its SUV? I mean this compound: CN1C[C@@](C)(c2cc(F)cc(F)c2)N(C/C=C/c2cnc3c(c2)C[C@@]2(C3)C(=O)Nc3ncccc32)C(=O)C12CCCC2
0.7

Moving on to CN1C[C@@](C)(c2cc(F)cc(F)c2)N(CC(=O)Nc2ccc3c(c2)C[C@@]2(C3)C(=O)Nc3ncccc32)C(=O)C1(C)C
0.7

Moving on to CN1C[C@@](C)(c2cc(F)cc(F)c2)N(CC#Cc2ccc3c(c2)C[C@@]2(C3)C(=O)Nc3ncccc32)C(=O)C12CCCC2
0.7

Moving on to CN1C[C@@](C)(c2cc(F)cc(F)c2)N(C/C=C/c2ccc3c(c2)C[C@@]2(C3)C(=O)Nc3ncccc32)C(=O)C12CCCC2
0.7

Moving on to CN1C[C@@](C)(c2cc(F)cc(F)c2)N(CC#Cc2cnc3c(c2)C[C@@]2(C3)C(=O)Nc3ncccc32)C(=O)C12CCCC2
0.7

Moving on to CN1C[C@@](C)(c2cc(F)cc(F)c2)N(CCCc2cnc3c(c2)C[C@@]2(C3)C(=O)Nc3ncccc32)C(=O)C12CCCC2
0.6

Moving on to CN1C[C@@H](c2cc(F)cc(F)c2)N(CC(=O)Nc2ccc3c(c2)C[C@@]2(C3)C(=O)Nc3ncccc32)C(=O)C1(C)C
0.5
